Target: BDNF/NT-3 growth factors receptor (Homo sapiens, UniProt Q16620)
Sequence (Q16620 whole entry): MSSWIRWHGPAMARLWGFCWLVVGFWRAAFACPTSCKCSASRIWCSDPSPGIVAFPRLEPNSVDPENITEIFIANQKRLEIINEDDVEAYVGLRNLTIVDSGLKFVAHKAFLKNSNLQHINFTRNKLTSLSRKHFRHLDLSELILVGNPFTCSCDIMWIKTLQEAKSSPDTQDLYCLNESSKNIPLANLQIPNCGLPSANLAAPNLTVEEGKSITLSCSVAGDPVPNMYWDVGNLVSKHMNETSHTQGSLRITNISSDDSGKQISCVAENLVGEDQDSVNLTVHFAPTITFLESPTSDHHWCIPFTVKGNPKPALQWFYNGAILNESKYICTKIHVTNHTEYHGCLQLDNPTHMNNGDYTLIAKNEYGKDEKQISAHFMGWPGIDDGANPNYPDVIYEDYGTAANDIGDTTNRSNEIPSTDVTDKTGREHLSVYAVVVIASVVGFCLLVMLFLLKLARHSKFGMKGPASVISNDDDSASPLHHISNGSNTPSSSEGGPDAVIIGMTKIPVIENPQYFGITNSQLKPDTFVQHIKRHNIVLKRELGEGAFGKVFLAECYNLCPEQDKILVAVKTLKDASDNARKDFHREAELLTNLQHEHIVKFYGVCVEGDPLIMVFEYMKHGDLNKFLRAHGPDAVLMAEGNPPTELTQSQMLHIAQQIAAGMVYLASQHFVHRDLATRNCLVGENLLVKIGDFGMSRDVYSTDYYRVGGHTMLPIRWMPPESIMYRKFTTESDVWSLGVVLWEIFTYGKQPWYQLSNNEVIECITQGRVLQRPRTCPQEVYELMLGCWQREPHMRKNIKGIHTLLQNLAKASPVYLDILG
Test: Inhibition of TrkB (unknown origin)
measuredEndpoint: pIC50
Value format note: pIC50 is -log10 of concentration (mol/L); just state the number.

*Q* Give the measured pIC50 for "CC(C)[C@H](CO)Nc1nc(Nc2ccc(C(=O)O)c(Cl)c2)c2ncn(C(C)C)c2n1"
*A* 7.96

* * *

Biological target: High affinity nerve growth factor receptor (Homo sapiens, UniProt P04629)
Sequence (P04629 whole entry): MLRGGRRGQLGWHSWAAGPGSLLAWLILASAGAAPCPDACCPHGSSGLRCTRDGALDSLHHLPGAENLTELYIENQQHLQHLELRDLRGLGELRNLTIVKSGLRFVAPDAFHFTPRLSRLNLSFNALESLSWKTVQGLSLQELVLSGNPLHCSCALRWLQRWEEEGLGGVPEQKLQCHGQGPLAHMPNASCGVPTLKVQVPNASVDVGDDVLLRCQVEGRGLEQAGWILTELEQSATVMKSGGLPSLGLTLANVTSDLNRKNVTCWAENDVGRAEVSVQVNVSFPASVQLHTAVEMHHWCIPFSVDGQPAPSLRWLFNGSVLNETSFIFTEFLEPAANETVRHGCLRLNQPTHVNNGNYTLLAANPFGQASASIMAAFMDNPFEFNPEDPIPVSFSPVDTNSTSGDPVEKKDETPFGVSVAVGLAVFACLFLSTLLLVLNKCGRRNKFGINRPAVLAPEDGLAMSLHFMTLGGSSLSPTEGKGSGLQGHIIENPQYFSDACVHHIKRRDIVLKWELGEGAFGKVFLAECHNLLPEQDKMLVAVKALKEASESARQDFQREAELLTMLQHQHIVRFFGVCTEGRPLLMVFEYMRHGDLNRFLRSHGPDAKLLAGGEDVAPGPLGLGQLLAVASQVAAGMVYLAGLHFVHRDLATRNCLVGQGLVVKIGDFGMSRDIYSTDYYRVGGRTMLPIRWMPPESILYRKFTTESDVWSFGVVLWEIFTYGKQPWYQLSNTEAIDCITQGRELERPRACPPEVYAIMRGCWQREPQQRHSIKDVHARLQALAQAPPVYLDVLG
Assay: Inhibition of TrkA (unknown origin)
measuredEndpoint: IC50 (µM)
Respond numerically; units are µM and should not be typed.

*Q* Please indicate recorded IC50 of "CC(C)[C@H](CO)Nc1nc(Nc2ccc(C(=O)O)c(Cl)c2)c2ncn(C(C)C)c2n1" measured with High affinity nerve growth factor receptor (Homo sapiens, UniProt P04629).
*A* 0.051

* * *

Molecular target: BDNF/NT-3 growth factors receptor (Homo sapiens)
Experiment: Inhibition of TrkB (unknown origin) by cell-based assay
measuredEndpoint: IC50

*Q* Item "CC(C)[C@H](CO)Nc1nc(Nc2ccc(C(=O)O)c(Cl)c2)c2ncn(C(C)C)c2n1" : provide IC50
*A* 1300 nM
